This section presents compounds with their documented IC50 values.
# tested.system: Baculoviral IAP repeat-containing protein 3 (Homo sapiens, UniProt Q13489)
# Sequence (Q13489 whole entry): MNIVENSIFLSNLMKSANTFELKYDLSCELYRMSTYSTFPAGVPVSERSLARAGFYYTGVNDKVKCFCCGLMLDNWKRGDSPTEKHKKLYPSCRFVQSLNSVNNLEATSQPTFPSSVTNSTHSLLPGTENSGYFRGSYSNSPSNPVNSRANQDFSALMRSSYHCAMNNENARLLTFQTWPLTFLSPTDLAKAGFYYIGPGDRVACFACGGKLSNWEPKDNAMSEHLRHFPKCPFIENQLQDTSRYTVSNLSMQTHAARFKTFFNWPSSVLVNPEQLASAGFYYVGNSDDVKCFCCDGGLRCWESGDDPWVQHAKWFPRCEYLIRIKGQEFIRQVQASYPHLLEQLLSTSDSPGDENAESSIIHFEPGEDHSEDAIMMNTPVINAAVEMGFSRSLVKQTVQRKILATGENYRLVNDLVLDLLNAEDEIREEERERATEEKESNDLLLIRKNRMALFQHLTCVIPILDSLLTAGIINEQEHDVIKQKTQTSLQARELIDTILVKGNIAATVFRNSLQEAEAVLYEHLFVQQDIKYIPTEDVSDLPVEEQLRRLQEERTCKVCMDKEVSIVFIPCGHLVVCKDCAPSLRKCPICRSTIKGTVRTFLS
# protocol.description: For cIAP-1 BIR3 and cIAP-2 BIR3 assays, a fluorescently labeled Smac mimetic (Smac-2F) was used as the fluorescent probe. The Kd values of Smac-2F to cIAP-1 BIR3 and cIAP-2 BIR3 were determined by monitoring the total fluorescence polarization of mixtures composed with the fluorescent probe at a fixed concentration and proteins with increasing concentrations up to full saturation. Fluorescence polarization values were measured using the Infinite M-1000 plate reader (Tecan U.S., Research Triangle Park, N.C.) in Microfluor 2 96-well, black, round-bottom plates (Thermo Scientific). To each well, 1 nM of SMAC-2F and increasing concentrations of protein were added to a final volume of 125 ul in the assay buffer (100 mM potassium phosphate, pH 7.5).

Assign IC50 to the following record: CN[C@@H](C)C(=O)N[C@H]1CN(C(=O)Nc2ccc(Cc3ccc(NC(=O)N4CC[C@H]5CC[C@@H](C(=O)N[C@H]6C[C@@H]6c6ccccc6)N5C(=O)[C@@H](NC(=O)[C@H](C)NC)C4)cc3)cc2)CC[C@H]2CCC(C(=O)N[C@H]3C[C@@H]3c3ccccc3)N2C1=O (some centres undefined)
< 3 µM

Next:
Fill in reported IC50 for this entry: CN[C@@H](C)C(=O)N[C@H]1CN(C(=O)NCCCCCCNC(=O)N2CC[C@H]3CC[C@@H](C(=O)N[C@H]4CC[C@@H]4c4ccccc4)N3C(=O)[C@@H](NC(=O)[C@H](C)NC)C2)CC[C@H]2CCC(C(=O)N[C@H]3CC[C@@H]3c3ccccc3)N2C1=O (some centres undefined)
< 1 µM

Indicate its recorded IC50; the compound in question is CN[C@@H](C)C(=O)N[C@H]1CN(C(=O)NCCCCCCNC(=O)N2CC[C@H]3CC[C@@H](C(=O)N[C@H]4CCC[C@H]4c4ccccc4)N3C(=O)[C@@H](NC(=O)[C@H](C)NC)C2)CC[C@H]2CCC(C(=O)N[C@H]3CCC[C@H]3c3ccccc3)N2C1=O (some centres undefined)
< 3 µM

Please report IC50 for the following compound: CN[C@@H](C)C(=O)N[C@H]1CN(C(=O)Nc2ccc(NC(=O)N3CC[C@H]4CC[C@@H](C(=O)N[C@H]5C[C@@H]5c5ccc(C(F)(F)F)c(F)c5)N4C(=O)[C@@H](NC(=O)[C@H](C)NC)C3)cc2)CC[C@H]2CC[C@@H](C(=O)N[C@H]3C[C@@H]3c3ccc(C(F)(F)F)c(F)c3)N2C1=O
< 3 µM

---

# tested.system: E3 ubiquitin-protein ligase XIAP (Homo sapiens, UniProt P98170)
# Sequence (P98170 whole entry): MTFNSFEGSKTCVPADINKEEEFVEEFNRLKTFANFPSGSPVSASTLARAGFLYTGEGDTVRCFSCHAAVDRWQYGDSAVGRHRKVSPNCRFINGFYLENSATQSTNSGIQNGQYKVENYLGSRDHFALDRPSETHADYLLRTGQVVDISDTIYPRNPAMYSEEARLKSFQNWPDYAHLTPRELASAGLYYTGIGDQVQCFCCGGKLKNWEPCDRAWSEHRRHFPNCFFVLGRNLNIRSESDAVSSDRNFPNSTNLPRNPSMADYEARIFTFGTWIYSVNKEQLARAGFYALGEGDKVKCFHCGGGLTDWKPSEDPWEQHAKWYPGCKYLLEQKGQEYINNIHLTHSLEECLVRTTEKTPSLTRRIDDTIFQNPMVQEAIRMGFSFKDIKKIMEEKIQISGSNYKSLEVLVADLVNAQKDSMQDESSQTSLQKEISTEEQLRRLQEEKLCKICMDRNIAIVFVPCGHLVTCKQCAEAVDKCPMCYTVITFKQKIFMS
# protocol.description: For cIAP-1 BIR3 and cIAP-2 BIR3 assays, a fluorescently labeled Smac mimetic (Smac-2F) was used as the fluorescent probe. The Kd values of Smac-2F to cIAP-1 BIR3 and cIAP-2 BIR3 were determined by monitoring the total fluorescence polarization of mixtures composed with the fluorescent probe at a fixed concentration and proteins with increasing concentrations up to full saturation. Fluorescence polarization values were measured using the Infinite M-1000 plate reader (Tecan U.S., Research Triangle Park, N.C.) in Microfluor 2 96-well, black, round-bottom plates (Thermo Scientific). To each well, 1 nM of SMAC-2F and increasing concentrations of protein were added to a final volume of 125 ul in the assay buffer (100 mM potassium phosphate, pH 7.5).
measured.quantity: IC50

Report value only: IC50, E3 ubiquitin-protein ligase XIAP (Homo sapiens, UniProt P98170), CN[C@@H](C)C(=O)N[C@H]1CN(C(=O)NCCCCCCNC(=O)N2CC[C@H]3CC[C@@H](C(=O)NCCc4ccccc4)N3C(=O)[C@@H](NC(=O)[C@H](C)NC)C2)CC[C@H]2CCC(C(=O)NCCc3ccccc3)N2C1=O (stereo not given in full)
< 1000 nM

Print E3 ubiquitin-protein ligase XIAP (Homo sapiens, UniProt P98170) IC50 for CN[C@@H](C)C(=O)N[C@H]1CN(C(=O)Nc2ccc(Cc3ccc(NC(=O)N4CC[C@H]5CC[C@@H](C(=O)N[C@H]6C[C@@H]6c6ccccc6)N5C(=O)[C@@H](NC(=O)[C@H](C)NC)C4)cc3)cc2)CC[C@H]2CCC(C(=O)N[C@H]3C[C@@H]3c3ccccc3)N2C1=O (stereo not given in full) .
< 1000 nM

Using E3 ubiquitin-protein ligase XIAP (Homo sapiens, UniProt P98170) as the test system, report measured IC50 of CN[C@@H](C)C(=O)N[C@H]1CN(C(=O)Nc2ccc(CCc3ccc(NC(=O)N4CC[C@H]5CC[C@@H](C(=O)NC(c6ccccc6)c6ccccc6)N5C(=O)[C@@H](NC(=O)[C@H](C)NC)C4)cc3)cc2)CC[C@H]2CCC(C(=O)NC(c3ccccc3)c3ccccc3)N2C1=O (stereo not given in full) .
< 30 nM

Tell me IC50 of CN[C@@H](C)C(=O)N[C@H]1CN(C(=O)NCCCCCCNC(=O)N2CC[C@H]3CC[C@@H](C(=O)NC4Cc5ccccc5C4)N3C(=O)[C@@H](NC(=O)[C@H](C)NC)C2)CC[C@H]2CCC(C(=O)NC3Cc4ccccc4C3)N2C1=O (stereo not given in full) when tested on E3 ubiquitin-protein ligase XIAP (Homo sapiens, UniProt P98170).
< 1000 nM

Next:
Provide E3 ubiquitin-protein ligase XIAP (Homo sapiens, UniProt P98170) IC50 reading for CN[C@@H](C)C(=O)N[C@H]1CN(C(=O)Nc2ccc(NC(=O)N3CC[C@H]4CC[C@@H](C(=O)N[C@H]5CCC[C@H]5c5ccccc5)N4C(=O)[C@@H](NC(=O)[C@H](C)NC)C3)cc2)CC[C@H]2CC[C@@H](C(=O)N[C@H]3CCC[C@H]3c3ccccc3)N2C1=O .
< 1000 nM
